- Target or test system: UniProtKB P16232
- Sequence (P16232 whole entry): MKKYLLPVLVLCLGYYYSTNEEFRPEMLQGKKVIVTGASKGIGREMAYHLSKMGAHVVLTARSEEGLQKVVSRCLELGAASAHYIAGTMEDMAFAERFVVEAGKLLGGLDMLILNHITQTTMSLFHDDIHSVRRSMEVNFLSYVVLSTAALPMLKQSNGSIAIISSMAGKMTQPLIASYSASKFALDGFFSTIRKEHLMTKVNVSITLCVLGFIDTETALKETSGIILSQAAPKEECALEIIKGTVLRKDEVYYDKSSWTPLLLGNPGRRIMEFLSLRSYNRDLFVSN
- Test description: Inhibition of 11beta-HSD1 in Sprague-Dawley rat leydig cells […]
Endpoint label: IC50 (µM)

// below: answered compounds
- Compound: "O=C1/C(=C/c2ccc(O)cc2)CCC/C1=C\\c1ccc(O)cc1"
  IC50 (µM): 0.633
- Compound: "O=C(/C=C/c1ccc(OC2CCCCO2)cc1)/C=C/c1ccc(OC2CCCCO2)cc1 (stereo not given)"
  IC50 (µM): 17.2
- Compound: "COc1cc(/C=C/C(=O)CC(=O)/C=C/c2ccc(O)c(OC)c2)ccc1O [CURCUMIN]"
  IC50 (µM): 3.92
- Compound: "O=C(/C=C/c1ccc(F)cc1)/C=C/c1ccc(F)cc1"
  IC50 (µM): 0.229
- Compound: "O=C1/C(=C/c2cccc(Br)c2)CC/C1=C\\c1cccc(Br)c1"
  IC50 (µM): 1.15
- Compound: "O=C(/C=C/c1ccccc1Br)/C=C/c1ccccc1Br"
  IC50 (µM): 0.129
- Compound: "O=C(/C=C/c1ccc(O)cc1)/C=C/c1ccc(O)cc1"
  IC50 (µM): 0.986
- Compound: "O=C1/C(=C/c2ccccc2Br)CCC/C1=C\\c1ccccc1Br"
  IC50 (µM): 0.148
- Compound: "CCOc1ccc(/C=C/C(=O)/C=C/c2ccc(OCC)cc2)cc1"
  IC50 (µM): 9.95
- Compound: "O=C1/C(=C/c2ccc(F)cc2)CCC/C1=C\\c1ccc(F)cc1"
  IC50 (µM): 1.11

1. O=C1/C(=C/c2ccccc2Br)CC/C1=C\c1ccccc1Br
2. CN(C)CCCOc1ccc(/C=C2\CC/C(=C\c3ccc(OCCCN(C)C)cc3)C2=O)cc1
3. COc1cc(/C=C/C(=O)/C=C/c2ccc(O)c(OC)c2)ccc1O
4. COc1cc(/C=C/C(=O)/C=C/c2ccc(OC3CCCCO3)c(OC)c2)ccc1OC1CCCCO1 (stereo not given)
List from greatest to least IC50. Return the labels ranked in the requested order, please.
4, 2, 1, 3
(4: 52.5 µM, 2: 4.17 µM, 1: 1.45 µM, 3: 0.292 µM)
